Molecular target: JAK1 (Homo sapiens)
Construct: purchased Carna Biosciences, Inc
Experiment: JAK tyrosine kinase inhibitory activity in the presence of 1 mM ATP (ELISA), JAK1
Type: biochemical
Description: 1. Preparation of Test Compound The test compound was dissolved in dimethyl sulfoxide (DMSO) to 10 mM and further diluted with DMSO to the concentrations of 1000, 100, 10, 1, 0.1 and 0.01 μM, respectively. For JAK1, these solutions of the test compound at the six concentrations 10 mM, 1000 μM, 100 μM, 10 μM, 1 μM and 0.1 μM were used. […] The activity was determined by ELISA method. […] The absorbance at 450 nm was measured using a microplate reader (BIO-RAD). […]
Metric: IC50 (nM)
Give a bare numeral; the unit nM is implied.

Examples with their reported IC50 follow.
[
  {
    "Molecule": "C[C@H](Nc1cc(C(=O)N2CCC(NC(=O)C3CCC3)CC2)nc(-c2cnn3ccsc23)n1)C1CC1 [Example 165]",
    "Value observed": 40
  },
  {
    "Molecule": "CS(=O)(=O)N1CCC(Nc2cc(C(=O)N3CCC(NC(=O)C4CC4)CC3)nc(-c3cnn4ccsc34)n2)CC1 [Example 189]",
    "Value observed": 1100
  }
]

input: Return reported IC50. Input molecule: COCCOC(=O)NC1CCN(C(=O)c2cc(NC(C)(C)C)nc(-c3cnn4ccsc34)n2)CC1 [Example 101]
output: 98

###

Target: JAK2 (Homo sapiens)
Construct: purchased Carna Biosciences, Inc
Sequence (O60674 whole entry): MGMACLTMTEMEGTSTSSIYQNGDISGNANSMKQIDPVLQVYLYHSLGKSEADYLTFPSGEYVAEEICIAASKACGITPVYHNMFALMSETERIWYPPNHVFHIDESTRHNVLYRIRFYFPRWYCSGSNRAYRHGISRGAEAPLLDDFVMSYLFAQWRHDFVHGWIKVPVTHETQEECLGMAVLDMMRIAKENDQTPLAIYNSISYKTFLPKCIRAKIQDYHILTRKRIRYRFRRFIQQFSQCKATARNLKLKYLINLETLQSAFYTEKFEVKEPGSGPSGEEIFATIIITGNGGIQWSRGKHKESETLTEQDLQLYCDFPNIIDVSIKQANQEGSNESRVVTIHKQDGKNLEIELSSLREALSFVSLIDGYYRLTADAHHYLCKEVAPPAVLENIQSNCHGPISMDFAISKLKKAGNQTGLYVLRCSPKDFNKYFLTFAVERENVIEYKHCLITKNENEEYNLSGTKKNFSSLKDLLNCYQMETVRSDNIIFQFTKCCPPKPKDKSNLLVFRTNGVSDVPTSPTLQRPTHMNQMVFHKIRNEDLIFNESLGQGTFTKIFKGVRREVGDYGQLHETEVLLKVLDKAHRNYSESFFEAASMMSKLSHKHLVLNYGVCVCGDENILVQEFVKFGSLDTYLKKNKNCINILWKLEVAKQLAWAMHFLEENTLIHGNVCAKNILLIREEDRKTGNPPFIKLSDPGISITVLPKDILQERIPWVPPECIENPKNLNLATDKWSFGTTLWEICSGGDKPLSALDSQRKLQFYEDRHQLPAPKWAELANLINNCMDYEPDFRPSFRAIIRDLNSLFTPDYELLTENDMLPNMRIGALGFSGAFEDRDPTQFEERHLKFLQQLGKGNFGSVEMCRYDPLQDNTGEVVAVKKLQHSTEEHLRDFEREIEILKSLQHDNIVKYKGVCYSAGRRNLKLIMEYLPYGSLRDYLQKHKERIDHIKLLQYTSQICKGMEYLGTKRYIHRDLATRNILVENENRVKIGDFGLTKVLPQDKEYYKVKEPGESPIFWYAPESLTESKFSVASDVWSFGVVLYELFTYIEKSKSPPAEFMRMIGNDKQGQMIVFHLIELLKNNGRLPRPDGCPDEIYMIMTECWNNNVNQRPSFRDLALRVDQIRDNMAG
Assay: JAK tyrosine kinase inhibitory activity in the presence of 1 mM ATP (ELISA), JAK2
Assay type: biochemical
Quick list: IC50 per entry.

Illustrative cases are given below, each with its answer.
[
  {
    "Compound structure": "COC(=O)NC1CCN(C(=O)c2cc(Oc3ccccc3)nc(-c3cnn4ccsc34)n2)CC1",
    "IC50": "> 10000 nM"
  },
  {
    "Compound structure": "COC(=O)NC1CCN(C(=O)c2cc(NCC(F)(F)F)nc(-c3cnn4ccsc34)n2)CC1",
    "IC50": "> 10000 nM"
  }
]

API: the following record is the query input.
input: Annotate the molecule COC(=O)NC1CCN(C(=O)c2cc(NC3CCCCC3)nc(-c3cnn4ccsc34)n2)CC1 with its measured IC50.
output: > 10000 nM

###

Target: JAK1 (Homo sapiens, UniProt P23458)
Construct: purchased Carna Biosciences, Inc
Sequence (P23458 whole entry): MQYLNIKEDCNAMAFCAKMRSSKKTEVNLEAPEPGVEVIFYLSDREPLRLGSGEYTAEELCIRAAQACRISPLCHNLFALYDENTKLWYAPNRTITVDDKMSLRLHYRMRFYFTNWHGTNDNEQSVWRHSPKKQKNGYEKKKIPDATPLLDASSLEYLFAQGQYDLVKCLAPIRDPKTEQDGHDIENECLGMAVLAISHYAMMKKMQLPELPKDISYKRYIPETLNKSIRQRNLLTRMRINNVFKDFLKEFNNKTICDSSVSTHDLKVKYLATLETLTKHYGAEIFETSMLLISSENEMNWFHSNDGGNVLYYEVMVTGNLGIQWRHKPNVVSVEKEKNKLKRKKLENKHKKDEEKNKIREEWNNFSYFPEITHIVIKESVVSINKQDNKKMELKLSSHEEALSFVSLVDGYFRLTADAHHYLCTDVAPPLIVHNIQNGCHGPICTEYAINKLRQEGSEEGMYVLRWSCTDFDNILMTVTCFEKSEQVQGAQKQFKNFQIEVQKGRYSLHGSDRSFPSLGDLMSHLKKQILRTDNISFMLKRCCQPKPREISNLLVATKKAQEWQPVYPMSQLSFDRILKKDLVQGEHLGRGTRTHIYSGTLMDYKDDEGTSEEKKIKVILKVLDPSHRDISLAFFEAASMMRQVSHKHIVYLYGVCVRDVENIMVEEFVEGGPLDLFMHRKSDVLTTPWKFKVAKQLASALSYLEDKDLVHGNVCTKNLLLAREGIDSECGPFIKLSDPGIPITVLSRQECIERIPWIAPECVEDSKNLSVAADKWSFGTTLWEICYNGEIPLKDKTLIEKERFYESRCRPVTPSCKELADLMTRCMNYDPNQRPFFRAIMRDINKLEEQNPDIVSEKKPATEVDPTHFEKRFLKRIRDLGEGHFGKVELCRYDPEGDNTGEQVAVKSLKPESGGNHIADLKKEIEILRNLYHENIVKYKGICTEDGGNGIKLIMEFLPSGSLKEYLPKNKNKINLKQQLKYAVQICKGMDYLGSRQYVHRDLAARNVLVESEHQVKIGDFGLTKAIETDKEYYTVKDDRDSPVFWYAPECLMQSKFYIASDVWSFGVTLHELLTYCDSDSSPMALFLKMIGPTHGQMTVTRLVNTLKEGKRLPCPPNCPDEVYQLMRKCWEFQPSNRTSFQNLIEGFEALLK
Experiment: JAK tyrosine kinase inhibitory activity in the presence of 1 mM ATP (ELISA), JAK1
Format: biochemical
Attribute: IC50
Numeric answer plus unit only.

Answered cases to consult:
[
  {
    "Molecule": "CCOc1c(N[C@@H](C)C2CC2)nc(-c2cnn3ccsc23)nc1C(=O)N1CCC(NC(=O)OC)CC1",
    "IC50": "180 nM"
  },
  {
    "Molecule": "CC(C)S(=O)(=O)N1CCC(Nc2cc(C(=O)N3CCC(NC(=O)C4CC4)CC3)nc(-c3cnn4ccsc34)n2)CC1",
    "IC50": "470 nM"
  },
  {
    "Molecule": "C[C@@H](Nc1cc(C(=O)N2CCC(NC(=O)N(C)C)CC2)nc(-c2cnn3ccsc23)n1)C1CC1",
    "IC50": "650 nM"
  },
  {
    "Molecule": "COC(=O)NC1CCN(C(=O)c2cc(OC3CCC3)nc(-c3cnn4ccsc34)n2)CC1",
    "IC50": "130 nM"
  },
  {
    "Molecule": "CCC(CC)Oc1cc(C(=O)N2CCC(NC(=O)OC)CC2)nc(-c2cnn3ccsc23)n1",
    "IC50": "200 nM"
  }
]

input: Indicate its recorded IC50; the molecule in question is COCC(C)(C)Nc1cc(C(=O)N2CCC(NC(=O)C3CC3)CC2)nc(-c2cnn3ccsc23)n1
output: 260 nM

###

Target: JAK2 (Homo sapiens)
Construct: purchased Carna Biosciences, Inc
Experiment: JAK tyrosine kinase inhibitory activity in the presence of 1 mM ATP (ELISA), JAK2
Type: biochemical
Counter-ions that a name gives are not always drawn.
Metric: log10 IC50 (log10 of the value in nM)
A difference of one corresponds to tenfold IC50; all values are log10 with IC50 in nM.

[
  {
    "Compound": "C[C@@H](Nc1cc(C(=O)N2CCC(NC(=O)C3CCCCC3)CC2)nc(-c2cnn3ccsc23)n1)C(C)(C)C",
    "Target under test": "JAK2 (Homo sapiens)",
    "Value observed": 3.73
  },
  {
    "Compound": "CC(=O)NC1CCN(C(=O)c2cc(N[C@@H](C)C3CC3)nc(-c3cnn4ccsc34)n2)CC1",
    "Target under test": "JAK2 (Homo sapiens)",
    "Value observed": 3.32
  },
  {
    "Compound": "CCOc1c(N[C@@H](C)C2CC2)nc(-c2cnn3ccsc23)nc1C(=O)N1CCC(NC(=O)OC)CC1",
    "Target under test": "JAK2 (Homo sapiens)",
    "Value observed": 3.72
  }
]

input: Name the recorded log10 IC50 of the compound listed here: C[C@H](Nc1cc(C(=O)N2CCC(O)CC2)nc(-c2cnn3ccsc23)n1)C(C)(C)C
output: 2.94

input: Complete the entry with log10 IC50 for C[C@H](Nc1cc(C(=O)N2CCC(NC(=O)C3CCCCC3)CC2)nc(-c2cnn3ccsc23)n1)C1CC1
output: 3.98

input: Look up and report measured log10 IC50 for this entry: COC(=O)NC1CCN(C(=O)c2cc(N[C@H](C)C(C)(C)C)nc(-c3cnn4ccsc34)n2)CC1
output: 3.11

input: Dear colleague, please send me the reported log10 IC50 for CC[C@H](C)Nc1cc(C(=O)N2CCC(NC(=O)OC)CC2)nc(-c2cnn3ccsc23)n1 [Example 125, hydrochloride] when you can.
output: 3.67

input: Quote log10 IC50 reported for C[C@@H](Nc1cc(C(=O)N2CCC(NC(=O)C3CC3)CC2)nc(-c2cnn3ccsc23)n1)C1CCCCC1 please.
output: 3.81

input: Fill in log10 IC50 for record COC(=O)NC1CCN(C(=O)c2cc(N[C@H](C)c3ccc(F)cc3)nc(-c3cnn4ccsc34)n2)CC1
output: 3.51

input: Fill in reported log10 IC50 for this entry: C[C@@H](C1CC1)N(C)c1cc(C(=O)N2CCC(Nc3ncccn3)CC2)nc(-c2cnn3ccsc23)n1
output: 3.38

input: Return the recorded log10 IC50 value; entry: COC(=O)NC1CCN(C(=O)c2cc(N[C@H](C)C(C)C)nc(-c3cnn4ccsc34)n2)CC1 [Example 24, hydrochloride]
output: 3.18

###

Target: JAK1 (Homo sapiens)
Construct: purchased Carna Biosciences, Inc
Experiment: JAK tyrosine kinase inhibitory activity in the presence of 1 mM ATP (ELISA), JAK1
Type: biochemical
Counter-ions that a name gives are not always drawn.
Metric: IC50 (nM)
Write down the numeric answer in nM and omit the unit.

[
  {
    "Molecule": "COC(=O)NC1CCN(C(=O)c2cc(N[C@H]3CCNC3)nc(-c3cnn4ccsc34)n2)CC1 [Example 149, dihydrochloride]",
    "Value units": "nM",
    "IC50": 1000
  },
  {
    "Molecule": "CC(C)[C@@H](C)Nc1cc(C(=O)N2CCC(NC(=O)C(F)F)CC2)nc(-c2cnn3ccsc23)n1",
    "Value units": "nM",
    "IC50": 490
  }
]

// switching to the query molecule
input: Note IC50 for the molecule shown: CC(=O)NC1CCN(C(=O)c2nc(-c3cnn4ccsc34)nc(N[C@@H](C)C(C)(C)C)c2C)CC1
output: 240

###

List of IC50 values.
Target: JAK3 (Homo sapiens)
Construct: purchased Carna Biosciences, Inc
Sequence (P52333 whole entry): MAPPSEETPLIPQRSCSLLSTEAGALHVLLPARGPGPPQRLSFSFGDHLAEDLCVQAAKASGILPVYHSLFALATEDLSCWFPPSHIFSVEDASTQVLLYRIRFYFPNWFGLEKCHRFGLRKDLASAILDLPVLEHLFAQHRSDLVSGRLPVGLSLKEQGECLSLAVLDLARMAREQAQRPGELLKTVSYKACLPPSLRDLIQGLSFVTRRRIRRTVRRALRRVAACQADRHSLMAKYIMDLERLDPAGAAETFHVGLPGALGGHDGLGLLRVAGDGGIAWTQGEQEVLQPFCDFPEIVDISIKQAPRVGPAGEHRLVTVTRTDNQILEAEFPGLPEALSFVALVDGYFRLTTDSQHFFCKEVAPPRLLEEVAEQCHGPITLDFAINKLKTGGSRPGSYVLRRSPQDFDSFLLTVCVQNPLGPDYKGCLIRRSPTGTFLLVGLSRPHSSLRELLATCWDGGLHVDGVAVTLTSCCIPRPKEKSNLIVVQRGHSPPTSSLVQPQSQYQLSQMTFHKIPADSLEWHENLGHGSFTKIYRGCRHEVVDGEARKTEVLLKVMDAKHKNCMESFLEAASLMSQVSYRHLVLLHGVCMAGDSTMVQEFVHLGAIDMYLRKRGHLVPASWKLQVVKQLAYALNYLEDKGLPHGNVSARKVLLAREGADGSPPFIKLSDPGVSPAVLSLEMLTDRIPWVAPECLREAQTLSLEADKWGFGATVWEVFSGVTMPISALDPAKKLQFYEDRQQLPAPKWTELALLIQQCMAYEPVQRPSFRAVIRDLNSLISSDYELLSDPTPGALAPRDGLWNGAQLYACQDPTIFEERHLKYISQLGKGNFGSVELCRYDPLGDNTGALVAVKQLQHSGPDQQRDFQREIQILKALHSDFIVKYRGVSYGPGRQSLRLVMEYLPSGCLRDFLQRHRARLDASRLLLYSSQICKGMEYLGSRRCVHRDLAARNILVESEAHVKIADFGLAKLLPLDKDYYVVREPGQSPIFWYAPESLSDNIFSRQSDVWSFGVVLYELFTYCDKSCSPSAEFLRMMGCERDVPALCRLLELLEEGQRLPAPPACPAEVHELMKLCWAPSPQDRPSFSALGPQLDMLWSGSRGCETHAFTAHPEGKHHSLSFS
Assay: JAK tyrosine kinase inhibitory activity in the presence of 1 mM ATP (ELISA), JAK3
Assay type: biochemical
Structures can show the parent of a compound that is named as a salt.

[
  {
    "Compound": "CC(C)(CO)Nc1cc(C(=O)N2CCC(NC(=O)C3CC3)CC2)nc(-c2cnn3ccsc23)n1 [Example 48]",
    "IC50": "> 10000 nM"
  }
]

input: Name the recorded IC50 of the compound listed here: C[C@@H](C1CC1)N(C)c1cc(C(=O)N2CCC(Nc3ncccn3)CC2)nc(-c2cnn3ccsc23)n1 [Example 35]
output: > 10000 nM

input: // Input: COC(=O)NC1CCN(C(=O)c2cc(N[C@@H](C)C3CC3)nc(-c3cnn4ccsc34)n2)CC1 [Example 26] . Output its IC50 only.
output: 2100 nM

input: Report measured IC50; entry is CCC(=O)N1CCC(Nc2cc(C(=O)N3CCC(NC(=O)OC)CC3)nc(-c3cnn4ccsc34)n2)CC1 [Example 198]
output: > 10000 nM

input: For the compound CC(=O)N1CCC(Nc2cc(C(=O)N3CCC(NC(=O)C4CC4)CC3)nc(-c3cnn4ccsc34)n2)CC1 [Example 188] , report IC50.
output: > 10000 nM

input: Report IC50, nothing else, for this compound: COC(=O)NC1CCN(C(=O)c2cc(NCC(C)(C)C)nc(-c3cnn4ccsc34)n2)CC1 [Example 87, hydrochloride]
output: 9500 nM

input: Entry COC(=O)NC1CCN(C(=O)c2cc(N[C@@H]3CCN(C(=O)C4CC4)C3)nc(-c3cnn4ccsc34)n2)CC1 [Example 205] needs its IC50 filled in; supply it.
output: > 10000 nM

input: Return IC50 (reported value) for this compound: COC(=O)NC1CCN(C(=O)c2cc(N[C@@H]3CCN(C(=O)CC#N)C3)nc(-c3cnn4ccsc34)n2)CC1 [Example 201]
output: > 10000 nM
